Data origin: patent US10239825B2

Tested on: adult female Sprague-Dawley rats
method notes: rat infusion study: loss/recovery of righting reflex and walk (anaesthetic effect)
Assay type: in vivo
condition details: time from onset of i.v. infusion to loss of righting reflex; 20 mg/kg/min initially
Classes based on LRR Time: band 1 = under 100 s, band 2 = from 100 s up to 200 s, band 3 = 200 s and over

| molecule | category |
| --- | --- |
| CCCOC(=O)CCCNC1(c2ccccc2Cl)CCCCC1=O.Cl (racemic) | band 3 |
| CCCOC(=O)CCNC1(c2ccccc2Cl)CCCCC1=O.Cl (racemic) | band 3 |
| CCOC(=O)CCNC1(c2ccccc2Cl)CCCCC1=O.Cl (racemic) | band 2 |
| CCOC(=O)CCCNC1(c2ccccc2Cl)CCCCC1=O.Cl (racemic) | band 1 |
| CC(C)OC(=O)CCCCNC1(c2ccccc2Cl)CCCCC1=O.Cl (racemic) | band 2 |
| CC(=O)OCCCN[C@]1(c2ccccc2Cl)CCCCC1=O.Cl [(S)-C3OAc] | band 1 |
| CC(C)OC(=O)CCCNC1(c2ccccc2Cl)CCCCC1=O.Cl (racemic) | band 2 |
| CC(C)OC(=O)CCN[C@@]1(c2ccccc2Cl)CCCCC1=O.Cl [(R)-C2iPr] | band 2 |
